Target: Solute carrier family 2, facilitated glucose transporter member 1 (Homo sapiens) (UniProt P11166)
Sequence (P11166 whole entry): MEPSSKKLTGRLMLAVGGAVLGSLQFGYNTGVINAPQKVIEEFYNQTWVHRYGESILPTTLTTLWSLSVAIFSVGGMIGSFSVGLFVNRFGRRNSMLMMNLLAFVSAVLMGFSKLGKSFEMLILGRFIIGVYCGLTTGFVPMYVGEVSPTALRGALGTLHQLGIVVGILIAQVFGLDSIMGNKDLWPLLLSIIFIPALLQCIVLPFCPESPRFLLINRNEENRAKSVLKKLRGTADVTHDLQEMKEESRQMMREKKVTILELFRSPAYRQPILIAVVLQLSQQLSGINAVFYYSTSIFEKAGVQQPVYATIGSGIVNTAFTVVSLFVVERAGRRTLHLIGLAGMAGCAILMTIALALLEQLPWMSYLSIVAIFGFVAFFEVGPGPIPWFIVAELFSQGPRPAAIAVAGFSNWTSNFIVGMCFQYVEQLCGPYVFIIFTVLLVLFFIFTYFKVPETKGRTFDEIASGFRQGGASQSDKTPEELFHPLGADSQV
Experiment: ST_JUDE_LEISH: Cytotoxicity at 2uM final concentration against transgenic Leishmania Mexicana promastigotes LmGLUT1 that are glucose transport deficient and complemented with the human glucose transporter GLUT1. Activity is measured by DNA content using SYBR green in vitro
Assay type: functional
Listed here: items and their measured inhibition.
Entry rule: numbers only, all in %.

Some solved entries appear below for comparison.
1. OC1(Cc2ccccc2)CCN(Cc2cccc(-c3c[nH]c4nc(NC5CCCC5)ncc34)c2)CC1 ... 9.83
2. Cc1nn(CC(C)C)c2sc(C(=O)Nc3nc(-c4ccccn4)cs3)cc12 ... 3.49
3. Cn1cncc1C(=O)Nc1cccc(-c2cccc(-c3nc4cc(C(F)(F)F)ccc4[nH]3)c2)c1 ... -1.02
4. COc1cccc(Nc2nc(N)c3ccccc3n2)c1 ... 22.4
5. COc1ccc2nccc([C@@H](O)CN3CCC(NS(=O)(=O)c4cc5c(cc4Cl)SCC(=O)N5)CC3)c2c1 ... 1.57
6. Cc1ccc(C2(C)CC(C)(C)N(C(=O)COc3ccc4ccccc4c3)c3ccccc32)cc1 (centres undefined) ... -1.77
7. COc1ccccc1C(C)NCC(=O)Nc1ccccc1Sc1ccccc1 (centres undefined) ... 0.18
8. c1ccc2c(NCCCCCCCNc3ccnc4ccccc34)ccnc2c1 ... 13.5

*Q* Report inhibition, nothing else, for this molecule: `Cc1ccc2[nH]c(-c3ccccc3Nc3ccnc4cc(-c5nccs5)ccc34)nc2c1`
*A* 1.04
